From: patent US20080090805A1

Overview of recorded Ki for various compounds
target-under-test: UniProt:P20272
experiment: CB1 receptor rat binding assay ([3H]SR141716A, rat brain membranes)
measurement-context: rat brain membranes, [3H]SR141716A; read-out: Binding rat pKi (converted)
parameter: Ki (nM)

1. COc1cccc(C2=Nc3cc(C(=O)NCc4ccc(C)o4)ccc3Sc3ccccc32)n1 [drawing 1458] = 7.94
2. O=C(NCc1cccc(Cl)c1)c1ccc2c(c1)N=C(N1CCCCC1)c1ccccc1S2(=O)=O [drawing 1428] = 50.1
3. O=C(NN1CCCCCC1)c1ccc2c(c1)N=C(c1ccc(Cl)s1)c1ccccc1S2 [drawing 1208] = 5.01
4. Cc1ccsc1C1=Nc2cc(C(=O)NC3CCCC3)ccc2Sc2ccccc21 [drawing 1382] = 31.6
5. CC(C)CNC(=O)c1ccc2c(c1)N=C(c1ccc(Cl)cn1)c1ccc(Cl)cc1S2 [drawing 1506] = 79.4
6. O=C(NN1CCCCC1)c1ccc2c(c1)N=C(c1ccc(Cl)c(F)c1)c1ccccc1S2 [drawing 1394] = 5.01
7. O=C(NCCC(F)(F)F)c1ccc2c(c1)N=C(c1ccc(F)cc1)c1ccccc1S2 [drawing 1418] = 6.31
8. CCCNC(=O)c1ccc2c(c1)N=C(c1ccc(OC)cc1)c1ccccc1S2 [drawing 1403] = 39.8

* * *

target-under-test: native CB1 receptors (Rattus norvegicus, UniProt P20272)
Sequence (P20272 whole entry): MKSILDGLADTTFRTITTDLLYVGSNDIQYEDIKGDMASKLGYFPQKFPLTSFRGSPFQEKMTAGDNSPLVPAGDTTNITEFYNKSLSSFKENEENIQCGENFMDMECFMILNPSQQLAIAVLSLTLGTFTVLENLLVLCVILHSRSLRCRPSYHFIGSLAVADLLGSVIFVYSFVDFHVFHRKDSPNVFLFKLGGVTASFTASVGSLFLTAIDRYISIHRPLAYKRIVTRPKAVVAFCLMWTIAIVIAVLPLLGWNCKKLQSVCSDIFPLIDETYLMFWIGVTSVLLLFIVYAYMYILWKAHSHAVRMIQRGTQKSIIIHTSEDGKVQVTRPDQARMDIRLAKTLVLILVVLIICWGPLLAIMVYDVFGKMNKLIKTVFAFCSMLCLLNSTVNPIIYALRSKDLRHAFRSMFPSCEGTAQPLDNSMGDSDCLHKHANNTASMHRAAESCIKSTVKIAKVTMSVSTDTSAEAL
experiment: CB1 receptor rat binding assay ([3H]SR141716A, rat brain membranes)
measurement-context: rat brain membranes, [3H]SR141716A
Overview of recorded Binding rat Inh % for various molecules
parameter: Binding rat Inh % (%)

1. CCCCNC(=O)c1ccc2c(c1)N=C(c1ccc(Br)cn1)c1ccccc1S2 [drawing 1378] = 83
2. O=C(NCc1ccco1)c1ccc2c(c1)N=C(c1ccc(F)cc1)c1ccccc1S2 [drawing 1370] = 103
3. CC(C)NC(=O)c1ccc2c(c1)N=C(c1ccc(Cl)cc1F)c1ccccc1S2 [drawing 1363] = 72
4. Cc1csc(CNC(=O)c2ccc3c(c2)N=C(c2cccc(F)c2)c2ccccc2S3)c1 [drawing 1234] = 89
5. O=C(NCCc1ccccn1)c1ccc2c(c1)N=C(c1ccc(F)cc1)c1ccccc1S2 [drawing 1411] = 85
6. CCCCNC(=O)c1cnc2c(n1)N=C(c1ccccc1)c1ccccc1S2 [drawing 1534] = 88
7. Cc1ccsc1C1=Nc2cc(C(=O)NCCC(C)C)ccc2Sc2ccccc21 [drawing 1251] = 88
8. Cc1ccsc1C1=Nc2cc(C(=O)NCCCC(F)(F)F)ccc2Sc2ccccc21 [drawing 1225] = 109

* * *

target-under-test: CB1 (mutant) (Homo sapiens)
experiment: R-SAT functional receptor assay, CB1 (mutant, truncated after amino acid 417)
Format: cell-based
measurement-context: Appendix A; R-SAT CB1; receptor form not stated; relative to SR141716 (100%); read-out: % Inhibition
parameter: Emax (%)

1) O=C(NCc1ccc(Cl)cc1Cl)c1ccc2c(c1)N=C(C1CCCCC1)c1ccccc1S2 = 90
2) O=C(NC1CCCC1)c1ccc2c(c1)N=C(c1ccc(F)cc1)c1ccccc1S2 [drawing 720] = 117
3) CCCC1=Nc2cc(C(=O)NCCc3ccc(Cl)cc3)ccc2Sc2ccccc21 [drawing 1003] = 110
4) O=C(NCc1ccncc1)c1ccc2c(c1)N=C(c1ccccc1Cl)c1ccccc1S2 = 67
5) CCCCNC(=O)c1ccc2c(c1)N=C(c1cccc(Cl)c1)c1cc(Cl)ccc1S2 [drawing 997] = 110

* * *

Overview of recorded Binding rat Inh % for various molecules
target-under-test: native CB1 receptors (Rattus norvegicus, UniProt P20272)
experiment: CB1 receptor rat binding assay ([3H]SR141716A, rat brain membranes)
measurement-context: rat brain membranes, [3H]SR141716A
parameter: Binding rat Inh %

1) O=C(NN1CCCCC1)c1ccc2c(c1)N=C(c1ccc(Cl)c(Cl)c1)c1ccccc1S2 [drawing 1305] = 96%
2) COc1ccc(C2=Nc3cc(C(=O)NC4CCCCC4)ccc3Sc3ccccc32)cc1 [drawing 1282] = 91%
3) COc1cccc(C2=Nc3cc(C(=O)NC4CCC(F)(F)CC4)ccc3Sc3ccccc32)n1 [drawing 1193] = 82%
4) O=C(NCc1cccs1)c1ccc2c(c1)N=C(c1ccccn1)c1ccccc1S2 [drawing 1381] = 109%
5) O=C(NC1CCC(F)(F)CC1)c1ccc2c(c1)N=C(c1cccc(F)c1)c1ccccc1S2 [drawing 1249] = 112%
6) O=C(NCCc1ccccn1)c1ccc2c(c1)N=C(c1ccc(Br)cc1)c1ccccc1S2 [drawing 1460] = 61%
7) O=C(NN1CCCCCC1)c1ccc2c(c1)N=C(c1ccc(F)cc1)c1ccccc1S2 [drawing 1433] = 112%
8) CCCCNC(=O)c1ccc2c(c1)N=C(c1ccc(F)c(F)c1)c1ccccc1S2 = 102%

* * *

target-under-test: CB1 (mutant) (Homo sapiens, UniProt P21554)
Sequence (P21554 1-417, change not shown): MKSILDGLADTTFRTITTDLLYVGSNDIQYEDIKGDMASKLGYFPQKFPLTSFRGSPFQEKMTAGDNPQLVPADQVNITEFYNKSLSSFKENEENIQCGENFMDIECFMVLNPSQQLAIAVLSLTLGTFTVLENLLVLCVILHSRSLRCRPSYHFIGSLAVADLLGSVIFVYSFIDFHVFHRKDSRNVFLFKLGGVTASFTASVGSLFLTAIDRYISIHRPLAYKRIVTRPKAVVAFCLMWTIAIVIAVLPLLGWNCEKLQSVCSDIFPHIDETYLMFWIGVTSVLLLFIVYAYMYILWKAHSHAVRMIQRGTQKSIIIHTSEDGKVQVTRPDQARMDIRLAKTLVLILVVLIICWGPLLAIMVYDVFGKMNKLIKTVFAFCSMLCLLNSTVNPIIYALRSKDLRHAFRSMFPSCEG
experiment: R-SAT functional receptor assay, CB1 (mutant, truncated after amino acid 417)
Assay type: cell-based
measurement-context: Appendix A; R-SAT CB1; receptor form not stated; relative to SR141716 (100%)
Overview of recorded % Inhibition for various compounds
parameter: % Inhibition (%)

1) O=C(NCc1cccc(Cl)c1)c1ccc2c(c1)N=C(c1ccc(F)cc1)c1ccccc1S2 [drawing 747] = 106
2) O=C(NC1CCCCC1)c1ccc2c(c1)N=C(c1ccc(Cl)cc1)c1ccccc1S2 [drawing 844] = 97
3) O=C(NN1CCCCCC1)c1ccc2c(c1)N=C(c1ccc(Cl)cc1)c1ccccc1S2 [drawing 1041] = 96
4) O=C(NCCc1ccccn1)c1ccc2c(c1)N=C(c1cccc(Cl)c1)c1ccccc1S2 [drawing 999] = 91
5) O=C(NN1CCCCC1)c1ccc2c(c1)N=C(C1CCCCC1)c1ccccc1S2 [drawing 861] = 100
6) O=C(NN1CCCCC1)c1ccc2c(c1)N=C(C1CCCCC1)c1ccccc1S2 [drawing 987] = 101
7) O=C(NCCc1ccccn1)c1ccc2c(c1)N=C(c1ccc(Cl)cc1)c1ccccc1S2 [drawing 1005] = 92
8) O=C(NN1CCCCC1)c1ccc2c(c1)N=C(c1ccc(Cl)cc1)c1ccccc1S2 [drawing 914] = 51
9) O=C(NCc1cccnc1)c1ccc2c(c1)N=C(c1ccc(Cl)c(Cl)c1)c1ccccc1S2 [drawing 687] = 114
10) CCOC(=O)N1CCC(NC(=O)c2ccc3c(c2)N=C(c2ccc(Cl)cc2)c2ccccc2S3)CC1 [drawing 676] = 105
11) CCCCNC(=O)c1ccc2c(c1)N=C(c1ccc(Cl)s1)c1ccccc1S2 [drawing 575] = 97
12) O=C(NN1CCCCC1)c1ccc2c(c1)N=C(c1ccc(F)cc1)c1ccccc1S2 [drawing 845] = 97
13) CC(NC(=O)c1ccc2c(c1)N=C(C1CCCCC1)c1ccccc1S2)c1ccccc1 (centres unmarked) [drawing 634] = 87
14) COCCNC(=O)c1ccc2c(c1)N=C(c1ccc(Cl)s1)c1ccccc1S2 [drawing 963] = 95
15) CC(NC(=O)c1ccc2c(c1)N=C(C1CCCCC1)c1ccccc1S2)c1ccccc1 (centres unmarked) [drawing 674] = 113
16) CCCNC(=O)c1ccc2c(c1)N=C(c1ccc(Cl)cc1)c1ccccc1S2 [drawing 969] = 105
17) O=C(NCc1cccs1)c1ccc2c(c1)N=C(c1cccc(F)c1)c1ccccc1S2 [drawing 593] = 93

* * *

target-under-test: native CB1 receptors (Rattus norvegicus)
experiment: CB1 receptor rat binding assay ([3H]SR141716A, rat brain membranes)
measurement-context: rat brain membranes, [3H]SR141716A
Overview of recorded Binding rat Inh % for various compounds
parameter: Binding rat Inh % (%)

1) CCCNC(=O)c1ccc2c(c1)N=C(c1ccc(Cl)cc1)c1ccccc1S2 [drawing 1210] = 95
2) O=C(NN1CCCCC1)c1ccc2c(c1)N=C(c1cccc(F)c1)c1ccccc1S2 [drawing 1374] = 94
3) CC(C)CNC(=O)c1ccc2c(c1)N=C(c1ccc(Br)cc1)c1ccccc1S2 [drawing 1354] = 77
4) CCCCNC(=O)c1ccc2c(c1)N=C(c1ccc(Cl)cn1)c1cc(F)ccc1S2 [drawing 1230] = 83
5) Cc1cccc(C2=Nc3cc(C(=O)NC4CCC(F)(F)CC4)ccc3Sc3ccccc32)n1 [drawing 1425] = 90
6) C[C@@H]1CCC[C@H](C)N1NC(=O)c1ccc2c(c1)N=C(c1ccc(Cl)c(Cl)c1)c1ccccc1S2 [drawing 1393] = 114
7) CC(C)CNC(=O)c1ccc2c(c1)N=C(c1ccc(Cl)cc1)c1ccccc1S2 [drawing 1314] = 92
8) O=C(NCCCC(F)(F)F)c1ccc2c(c1)N=C(c1ccccn1)c1ccccc1S2 [drawing 1473] = 92
9) COc1ccc(C2=Nc3cc(C(=O)NC4CCCC4)ccc3Sc3ccccc32)cc1 [drawing 1364] = 71
10) O=C(NNCC(F)(F)F)c1ccc2c(c1)N=C(c1cccc(Cl)c1)c1ccccc1S2 [drawing 1467] = 97
11) CCOCCNC(=O)c1ccc2c(c1)N=C(c1ccc(Br)cc1)c1ccccc1S2 [drawing 1404] = 81
12) Cc1ccsc1C1=Nc2cc(C(=O)NCC(C)C)ccc2Sc2ccccc21 [drawing 1516] = 98
13) Cc1cnc(-c2ccc3c(c2)N=C(c2ccc(Cl)cc2)c2ccccc2S3)[nH]1 [drawing 1371] = 84
14) CC(C)CCNC(=O)c1ccc2c(c1)N=C(c1cccc(Cl)c1)c1ccccc1S2 [drawing 1185] = 89
15) CCCNC(=O)c1ccc2c(c1)N=C(c1sccc1C)c1ccccc1S2 [drawing 1387] = 64
16) CC(C)CNC(=O)c1ccc2c(c1)N=C(c1ccc(F)cc1)c1ccccc1S2 [drawing 1319] = 87
17) NS(=O)(=O)c1ccc(CNC(=O)c2ccc3c(c2)N=C(c2ccc(Cl)cc2)c2ccccc2S3)cc1 [drawing 1486] = 66
